- System: KM12 colon
- protocol_text: NCI-60 one-dose screen, 48 h (100 = growth as untreated, 0 = no growth, -100 = all killed)
- recorded_conditions: 10 µM unless noted
The panel holds about 83,000 compounds, 20% with a hit somewhere; the sample as a whole holds those more often. The source made the active and inactive calls. The calls were made as follows: active = growth percent below 10; inactive = the rest.

{"compound": "COc1ccccc1N1CCCCC1", "growth": "107% (inactive)"}
{"compound": "O=C(Nn1c2c(sc1=NC1CC1)C(=O)c1ccccc1C2=O)c1cc2ccc1CCc1ccc(cc1)CC2", "growth": "35.2% (inactive)"}
{"compound": "COCCNC(=O)Nc1ccc2nc(-c3cccs3)c(-c3cccs3)nc2c1", "growth": "95.2% (inactive)"}
{"compound": "COC12C=C/C(=C(/C(=O)OCc3ccncc3)C(=O)CCCCCCCCC3(OC)C=C/C(=C(/C(=O)OCc4ccncc4)C(=O)CCCCCCCC1)O3)O2", "growth": "-77.2% (active)"}
{"compound": "COc1ccc(C(=O)C/C(=C\\c2ccc(Cl)cc2)C(=O)NCc2ccccc2)cc1", "growth": "99.7% (inactive)"}
{"compound": "CCN1C(=S)N(c2ccccc2)C2NC(=S)N(/N=C/C=C/c3ccccc3OC)C21 (stereo unspecified)", "growth": "7.72% (active)"}
{"compound": "C=CCSc1nnc(NC(=O)CCl)s1", "growth": "95.3% (inactive)"}
{"compound": "CCCCCN1C(=O)/C(=c2\\sc3n(c2=O)C2C(NN=3)N(CC)C(=O)N2CC)c2ccccc21 (stereo unspecified)", "growth": "-52.9% (active)"}
{"compound": "O=C1NC(=C(Cl)Cl)/C(=N\\S(=O)(=O)NCc2ccccc2)N1", "growth": "62.9% (inactive)"}
{"compound": "N#CC1=C(N)Oc2c(c(=O)[nH]c3ccc(Cl)cc23)C12C(=O)c1ccccc1C2=O", "growth": "90.7% (inactive)"}
{"compound": "COC1=CC(c2ccc[nH]2)=N/C1=C\\c1[nH]c(C)c(C(=O)OC(C)C)c1C", "growth": "-66.3% (active)"}
{"compound": "Cc1cccc(/C=C/c2c(C(=O)/C=C/c3ccccc3)c(C)nc3ccccc23)c1", "growth": "-52.7% (active)"}
{"compound": "C1CCC([PH+](C2CCCCC2)C2CCCCC2[PH+](C2CCCCC2)C2CCCCC2)CC1.[Au].[CH-]1CCCCC1C1CCCC[N-]1 (stereo unspecified)", "growth": "-85.2% (active)"}
{"compound": "CC1CCN(CCOc2ccc(CNc3ccc4nc(CCC5CCCCC5)[nH]c4c3)cc2)CC1", "growth": "44% (inactive)"}
{"compound": "CC(C)c1ccc(Cc2cnc(NC(=O)c3cc(Br)cs3)s2)cc1", "growth": "20.7% (inactive)"}
{"compound": "COc1ccc(-c2cc(-c3cc(OC)c(OC)c(OC)c3)c(C#N)c(=O)n2CCCCC(=O)NO)cc1", "growth": "73.1% (inactive)"}
{"compound": "N=C(N)c1ccc(-c2ccc(-c3ccccc3)o2)cc1", "growth": "-80.3% (active)"}
{"compound": "C#CCOc1ccc2ncnc(Nc3ccc(NC(=O)C=C)cc3)c2c1", "growth": "8.91% (active)"}
{"compound": "COc1cc(OCc2cccc(Br)c2C)cc(OC)c1C=O", "growth": "94.5% (inactive)"}
{"compound": "O=C1Nc2ccccc2/C1=C/c1cccn1CCCCn1c2ccccc2c(=O)c2ccccc21", "growth": "13% (inactive)"}
{"compound": "Clc1ccc2c(NC3CCC(N4CCOCC4)CC3)ccnc2c1 (stereo unspecified)", "growth": "96.4% (inactive)"}
{"compound": "O=C1/C(=C\\c2ccc3nccnc3c2)SC(=S)N1CCc1ccc(O)cc1", "growth": "52.1% (inactive)"}
{"compound": "Clc1cc(Cl)c(Cl)c(-c2nnc(SCc3ccncc3Br)o2)c1", "growth": "96.2% (inactive)"}
{"compound": "Cc1[nH]c(=O)[nH]c(=O)c1Br", "growth": "108% (inactive)"}
{"compound": "CSc1oc(C)nc1[P+](c1ccccc1)(c1ccccc1)c1ccccc1", "growth": "23% (inactive)"}
{"compound": "O=C(Nc1ccccc1)Nc1ncnc2c1ncn2-c1ccc(Cl)cc1", "growth": "87.1% (inactive)"}
{"compound": "Cc1c(O)cc(-c2cnc(Nc3ccccc3)s2)c(O)c1C", "growth": "95.9% (inactive)"}
{"compound": "COc1cc2cc(NCc3cccc(Cl)c3)nc(C)c2cc1OC", "growth": "38.8% (inactive)"}
{"compound": "CC1CN(S(=O)(=O)c2oc(-c3ccc(Cl)cc3)nc2C#N)CC(C)O1 (stereo unspecified)", "growth": "100% (inactive)"}
{"compound": "CCNCCNc1cc(-c2ccc(C(F)(F)F)cc2)c(C#N)c2nc3ccccc3n12", "growth": "-85.1% (active)"}
{"compound": "COc1ccc(/C=N\\Nc2nc(SCCC(C)C)nc(-c3ccc(OC)cc3)c2C#N)cc1", "growth": "83% (inactive)"}
{"compound": "Cc1ccc(/C=C2\\COc3ccc(O)cc3C2=O)cc1", "growth": "46.6% (inactive)"}
{"compound": "COc1cc2c(cc1OCCCN1CCN(CCCOc3cc4c(cc3OC)C(=O)N3CC(F)(F)C[C@H]3C=N4)CC1)N=C[C@@H]1CC(F)(F)CN1C2=O", "growth": "62.3% (inactive)"}
{"compound": "COc1ccc(OC)c(Nc2nnc(-c3ccc(O)c(OC)c3)o2)c1", "growth": "20.4% (inactive)"}
{"compound": "Cn1cc(-c2ccc3nc(-c4ccc(CC(=O)ONc5cc(C(C)(C)C)on5)cc4)cnc3c2)cn1", "growth": "11% (inactive)"}
{"compound": "COc1cc(/C=C/C(=O)c2ccc(F)cc2)ccc1OCCCCOc1ccc(/C=C/C(=O)c2c(C)nc3ccccc3c2C)cc1OC", "growth": "111% (inactive)"}
{"compound": "CCSc1nc2scc(C)c2c(=O)[nH]1", "growth": "103% (inactive)"}
{"compound": "COc1ccc(OC)c(-c2nc(SCC(=O)c3ccc(C#N)cc3)[nH]c(=O)c2C#N)c1", "growth": "91.8% (inactive)"}
{"compound": "C1CN(SSN2CCOCC2)CCO1", "growth": "2.07% [100 µM] (active)"}
{"compound": "Cn1cc(-c2csc(-c3c[nH]c4ccccc34)n2)c2cnccc21", "growth": "22.8% (inactive)"}
{"compound": "O=C(N/N=C/c1c(Cl)cccc1Cl)c1cccnc1Nc1cccc(C(F)(F)F)c1", "growth": "41.9% (inactive)"}

The origin of these recorded values is PubChem BioAssay (NCI).
